- protocol: Clearance in rat at 1 mg/kg, iv
- Assay type: ADME, organism-based
- Set-up: dose 1 mg/kg, route intravenous
- condition description: in vivo
property: clearance (mL/min/kg)

[I] CC[C@H](NC(=O)[C@H]1NCC[C@@H]1O)c1ccc(-c2noc(CCC3CCCCC3)n2)cc1
[II] C[C@H](NC(=O)[C@H]1NCC[C@@H]1O)c1ccc(-c2noc(CCC3CCCC3)n2)cc1
Query :: Returns the identifier with the smallest measured clearance among I and II . Field: selected label. Fill in the label of the entry you choose.
Result :: II
(II: 37.1 mL/min/kg, I: 81.8 mL/min/kg)

* * *

- protocol: Tmax in rat at 3 mg/kg, po
- Format: ADME, organism-based
- Set-up: dose 3 mg/kg, route oral
- condition description: in vivo
property: Tmax (min)

[P] C[C@H](NC(=O)[C@H]1NCC[C@@H]1O)c1ccc(-c2noc(CCC3CCCC3)n2)cc1
[Q] CC[C@H](NC(=O)[C@H]1NCC[C@@H]1O)c1ccc(-c2noc(CCC3CCCCC3)n2)cc1
Query :: Returns the identifier with the smallest measured Tmax among P and Q . Field: selected label. Fill in the label of the entry you choose.
Result :: P

* * *

- protocol: Intrinsic clearance in human liver microsome measured per mg of protein
- Assay type: ADME
- condition description: liver microsomes
property: microsomal CLint (µL/min/mg)

line notation: CC[C@H](NC(=O)[C@H]1NCC[C@@H]1O)c1ccc(-c2noc(CCC3CCCCC3)n2)cc1
unit abbreviation: µL/min/mg
microsomal CLint: 10

[1] C[C@H](NC(=O)[C@H]1NCC[C@@H]1O)c1ccc(-c2noc(CCC3CCCC3)n2)cc1
[2] CCCCCCCc1nc(-c2ccc(CNC(=O)[C@H]3NCC[C@@H]3O)cc2)no1
Query :: Returns the identifier with the smallest measured microsomal CLint among 1 and 2 . Field: selected label. Fill in the label of the entry you choose.
Result :: 1

* * *

- protocol: Half life in rat at 1 mg/kg, iv
- Assay type: ADME, organism-based
- Parameters: dose 1 mg/kg, route intravenous
- condition description: in vivo
property: half-life (h)

[I] CC[C@H](NC(=O)[C@H]1NCC[C@@H]1O)c1ccc(-c2noc(CCC3CCCCC3)n2)cc1
[II] C[C@H](NC(=O)[C@H]1NCC[C@@H]1O)c1ccc(-c2noc(CCC3CCCC3)n2)cc1
Query :: Which numeric half-life is bigger, that of I or that of II ? Field: selected label. Fill in the label of the entry you choose.
Result :: II
(II: 4.3 h, I: 1.64 h)

* * *

- protocol: Distribution coefficient, log D of the compound
- Format: physicochemical
- condition description: octanol/water
property: logD

Example compounds with recorded logD:
line notation: C[C@H](NC(=O)[C@H]1NCC[C@@H]1O)c1ccc(-c2noc(CCC3CCCCC3)n2)cc1
logD: 3.6

line notation: CCCCCCCc1nc(-c2ccc(CNC(=O)[C@H]3NCC[C@@H]3O)cc2)no1
logD: 3.7

[a] C[C@H](NC(=O)[C@H]1NCC[C@@H]1O)c1ccc(-c2noc(CCC3CCCC3)n2)cc1
[b] CC[C@H](NC(=O)[C@H]1NCC[C@@H]1O)c1ccc(-c2noc(CCC3CCCCC3)n2)cc1
Query :: Which numeric logD is bigger, that of a or that of b ? Field: selected label. Fill in the label of the entry you choose.
Result :: b

* * *

- protocol: Intrinsic clearance in rat liver microsome measured per mg of protein
- Type: ADME
- condition description: liver microsomes
property: microsomal CLint (µL/min/mg)

line notation: C[C@H](NC(=O)[C@H]1NCC[C@@H]1O)c1ccc(-c2noc(CCC3CCCCC3)n2)cc1
meas value: 50.2

line notation: C[C@H](NC(=O)[C@H]1NCC[C@@H]1O)c1ccc(-c2noc(CCC3CCCC3)n2)cc1
meas value: 49.5

[I] CCCCCCCc1nc(-c2ccc(CNC(=O)[C@H]3NCC[C@@H]3O)cc2)no1
[II] CC[C@H](NC(=O)[C@H]1NCC[C@@H]1O)c1ccc(-c2noc(CCC3CCCCC3)n2)cc1
Query :: Returns the identifier with the smallest measured microsomal CLint among I and II . Field: selected label. Fill in the label of the entry you choose.
Result :: II

* * *

- protocol: AUC in rat at 1 mg/kg, iv
- Assay type: ADME, organism-based
- Parameters: dose 1 mg/kg, route intravenous
- condition description: plasma
property: AUC (ng·h/mL)

[A] CC[C@H](NC(=O)[C@H]1NCC[C@@H]1O)c1ccc(-c2noc(CCC3CCCCC3)n2)cc1
[B] C[C@H](NC(=O)[C@H]1NCC[C@@H]1O)c1ccc(-c2noc(CCC3CCCC3)n2)cc1
Query :: Which numeric AUC is bigger, that of A or that of B ? Field: selected label. Fill in the label of the entry you choose.
Result :: B
(B: 439 ng·h/mL, A: 204 ng·h/mL)

Sourced from ChEMBL document CHEMBL1208743
